# SYSTEM NAME: human PAD4 (hPAD4) (Homo sapiens, UniProt Q9UM07)
# Sequence (Q9UM07 whole entry): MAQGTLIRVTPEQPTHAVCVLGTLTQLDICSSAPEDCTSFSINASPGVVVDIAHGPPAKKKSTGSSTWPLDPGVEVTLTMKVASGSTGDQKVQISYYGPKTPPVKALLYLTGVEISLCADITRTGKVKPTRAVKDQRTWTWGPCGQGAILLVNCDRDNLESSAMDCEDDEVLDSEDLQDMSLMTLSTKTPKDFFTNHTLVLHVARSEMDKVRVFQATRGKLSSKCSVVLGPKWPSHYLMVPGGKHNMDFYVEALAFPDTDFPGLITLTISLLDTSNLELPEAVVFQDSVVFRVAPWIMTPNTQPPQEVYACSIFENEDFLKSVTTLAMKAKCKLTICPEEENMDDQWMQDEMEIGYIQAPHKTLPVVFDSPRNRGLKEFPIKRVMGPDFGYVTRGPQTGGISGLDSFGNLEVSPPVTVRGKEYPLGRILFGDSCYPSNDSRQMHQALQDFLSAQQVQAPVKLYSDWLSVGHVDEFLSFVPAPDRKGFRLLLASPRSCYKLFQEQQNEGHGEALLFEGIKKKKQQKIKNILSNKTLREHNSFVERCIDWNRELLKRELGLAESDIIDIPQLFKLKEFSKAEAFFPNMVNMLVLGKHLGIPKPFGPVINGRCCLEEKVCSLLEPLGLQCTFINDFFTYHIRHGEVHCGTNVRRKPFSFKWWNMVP
# ASSAY TEXT: RFMS human PAD4 functional assay (rapid-fire mass spectrum)
# RUN PARAMETERS: 5 nM hPAD4 enzyme, 250 μM BAEE, 50 μM Calcium; 30 min preincubation, 90 min reaction at 37° C.
pIC50: −log10 of the molar value.
VALUE KIND: pIC50

Study these solved cases before continuing.
{"columns": ["COMPOUND", "pIC50"],
 "data": [
  ["N[C@@H]1[C@@H]2CC[C@H]1N(C(=O)c1ccc3c(c1)nc(-c1cc4ccccc4n1CC1CC1)n3CC1CN(C(=O)c3ccncc3)C1)C2 [Example 175]", 7.29],
  ["COc1cc(C(=O)N2C[C@H](N)C[C@@H](F)C2)cc2nc(-c3cc4ccccc4n3CC3CC3)n(CC3CN(C(=O)c4ccccc4)C3)c12 [Example 160]", 7.60],
  ["COc1cc(C(=O)N2C[C@H]3CC[C@@H]2[C@@H]3N)cc2nc(-c3cc4cccnc4n3CC3CC3)n(CC3CN(c4cncs4)C3)c12 [Example 84]", 6.29]
]}

a: COc1cc(C(=O)N2C[C@H]3CC[C@@H]2[C@@H]3N)cc2nc(-c3cc4ccccc4n3CC3CC3)n(CC3CN(C(=O)c4ccc(F)cc4)C3)c12 [Example 161]
b: COc1cc(C(=O)N2C[C@H]3CC[C@@H]2[C@@H]3N)cc2nc(-c3cc4cccnc4n3CC3CC3)n(CC3CN(c4cccc(C#N)n4)C3)c12 [Example 21]
Hi! Which is lower in terms of pIC50, the first one a or the second one b ? State the label of the item chosen.
b

1: COc1cc(C(=O)N2C[C@H]3CC[C@@H]2[C@@H]3N)cc2nc(-c3cc4cccnc4n3CC3CC3)n(CC3CN(c4ccnc(S(C)(=O)=O)n4)C3)c12 [Example 13]
2: COc1cc(C(=O)N2C[C@H]3CC[C@@H]2[C@@H]3N)cc2nc(-c3cc4cccnc4n3CC3CC3)n(C3CN(c4cncc(C#N)c4)C3)c12 [Example 73]
Hi! Which is lower in terms of pIC50, the first one 1 or the second one 2 ? State the label of the item chosen.
2
(2: 6.83, 1: 7.42)

A: COc1cc(C(=O)N2CC3CCC2[C@@H]3N)cc2nc(-c3cc4cccnc4n3CC3CC3)n(CC3CN(C(=O)c4ccccc4Cl)C3)c12 (some centres unmarked) [Example 428]
B: COc1cc(C(=O)N2C[C@H](N)C[C@@H](F)C2)cc2nc(-c3cc4ccccc4n3CC3CC3)n(Cc3cnn(-c4ccccc4)c3)c12 [Example 261]
C: COc1cc(C(=O)N2CC3CCC2[C@@H]3N)cc2nc(-c3cc4cccnc4n3CC3CC3)n([C@H]3C[C@H](NC(=O)c4cc[nH]c(=O)c4)C3)c12 (some centres unmarked) [Example 299]
D: COc1cc(C(=O)N2C[C@H]3CC[C@@H]2[C@@H]3N)cc2nc(-c3cc4cccnc4n3CC3CC3)n(C[C@H]3CCN(c4cncc(C#N)c4)C3)c12 [Example 195]
E: COc1cc(C(=O)N2CCC[C@@H](N)C2)cc2nc(-c3cc4cccnc4n3CC3CC3)n(CC3CN(C(=O)c4ccccc4)C3)c12 [Example 413]
Put the items in order so that reported pIC50 rises from first to last. # respond with the labels, arranged in the requested order
C, E, B, A, D

# credit: patent US12692254B2
